All values here come from patent US9505749B2.

Measured pIC50 of individual entries
Biological target: PARP2 (Homo sapiens (Human), UniProt Q9UGN5)
Sequence (Q9UGN5 whole entry): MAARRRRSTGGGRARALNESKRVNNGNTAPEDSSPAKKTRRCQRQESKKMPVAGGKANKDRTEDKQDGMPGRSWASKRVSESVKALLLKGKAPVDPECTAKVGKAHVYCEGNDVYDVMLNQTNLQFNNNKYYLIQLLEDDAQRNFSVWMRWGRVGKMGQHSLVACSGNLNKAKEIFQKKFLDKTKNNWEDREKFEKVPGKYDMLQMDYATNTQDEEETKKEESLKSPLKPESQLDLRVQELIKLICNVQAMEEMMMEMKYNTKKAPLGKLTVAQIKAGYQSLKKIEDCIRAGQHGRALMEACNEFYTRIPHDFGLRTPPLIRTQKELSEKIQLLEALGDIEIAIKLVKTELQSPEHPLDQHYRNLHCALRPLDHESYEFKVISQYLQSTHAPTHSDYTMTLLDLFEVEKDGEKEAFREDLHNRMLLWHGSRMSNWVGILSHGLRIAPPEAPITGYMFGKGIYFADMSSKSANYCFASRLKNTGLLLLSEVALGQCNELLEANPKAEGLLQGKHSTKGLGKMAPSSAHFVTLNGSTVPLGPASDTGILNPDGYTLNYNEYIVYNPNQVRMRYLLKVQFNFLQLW
Answer as the number alone; pIC50 is minus log10 of concentration in mol/L.

O=C(CCCc1nc2ccccc2c(=O)[nH]1)N[C@H]1CC[C@H](c2nnc(-c3ccc(Cl)cc3)o2)CC1 [Example 29]    6.05

We next turn to a different molecule, shown below.
Problem: Return the recorded pIC50 value; entry: O=C(CCc1nc2ccccc2c(=O)[nH]1)N[C@H]1CC[C@H](n2c(=O)[nH]c3cc(Cl)ccc32)CC1 [Example 85]
Solution: 6.33

---

For PARP2 (Homo sapiens (Human)), measured IC50 is reported for the entries below.
Numbers only here, please. The scale is µM.

# count of solved cases: 2
O=C(CCc1nc2ccccc2c(=O)[nH]1)N[C@H]1CC[C@H](c2nnc(-c3cccc(Cl)c3)o2)CC1 [Example 130]    0.944
O=C(CCSc1nc2ccccc2c(=O)[nH]1)N[C@H]1CC[C@H](c2nnc(-c3cccc(Cl)c3)o2)CC1 [Example 118]    3.28

Problem: Return the recorded IC50 value; entry: O=C(CCCc1nc2ccccc2c(=O)[nH]1)N1CCC(n2c(=O)[nH]c3c(F)cccc32)CC1 [Example 67]
Solution: 0.681
